System: MES-SA/DX5
Assay: Tumor cell growth inhibition, MTS assay, MES-SA/DX5
Type: cell-based, human
Details: Homo sapiens, MES-SA/Dx5; protocol of Example 15; Table 2
attribute_measured: IC50 (µM)
Provide the reading as a plain figure in µM.

Exam item: Give the value of IC50 reported for the following: "CCN(NC(=O)C(C)C(=O)NN(CC)C(=S)c1ccccc1)C(=S)c1ccccc1"
Marked response: 0.05

====

Test system: 39SK normal fibroblast
Experiment: In vitro cytotoxicity, MTS assay, 39SK
Assay type: cell-based
Conditions: Human normal fibroblast, 72 hours
attribute_measured: IC50

Exam item: Give the value of IC50 reported for the following: CN(NC(=O)CC(=O)NN(C)C(=S)c1ccccc1)C(=S)c1ccccc1 [Compound (1)]
Marked response: > 10 µM
